EXPERIMENT_DESCRIPTION: Oral bioavailability in BALB/c mouse at 5 mg/kg
Format: ADME, organism-based
TEST_CONDITIONS: in vivo
READOUT_LABEL: bioavailability (%)
Give a bare numeral; the unit % is implied.

GET /value?item= O=C(NCc1cccnc1)Nc1ccc(S(=O)(=O)N2CC3CCC(C2)O3)cc1 &field=bioavailability returns 26

====

EXPERIMENT_DESCRIPTION: Cmax in BALB/c mouse at 5 mg/kg, po
Assay type: ADME, organism-based
Parameters: dose 5 mg/kg, route oral
TEST_CONDITIONS: in vivo
READOUT_LABEL: Cmax (nM)
Numeric only. Scale: nM

So for O=C(NCc1cccnc1)Nc1ccc(S(=O)(=O)N2CC3CCC(C2)O3)cc1 , the logged Cmax turned out to be 1100

The reported measurements were obtained from ChEMBL document CHEMBL2390838.
